Target: L-lactate dehydrogenase (Plasmodium falciparum (isolate CDC / Honduras)) (UniProt Q27743)
Sequence (Q27743 whole entry, looked up): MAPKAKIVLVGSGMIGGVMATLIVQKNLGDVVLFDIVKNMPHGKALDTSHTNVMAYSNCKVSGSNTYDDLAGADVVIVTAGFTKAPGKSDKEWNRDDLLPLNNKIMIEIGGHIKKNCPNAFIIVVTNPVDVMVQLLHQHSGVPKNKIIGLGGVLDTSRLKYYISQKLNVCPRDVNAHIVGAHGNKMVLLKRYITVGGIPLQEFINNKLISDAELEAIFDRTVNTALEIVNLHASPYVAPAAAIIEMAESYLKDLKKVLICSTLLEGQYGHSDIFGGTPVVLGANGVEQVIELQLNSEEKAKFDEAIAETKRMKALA
Test: PfLDH activity inhibition – cell lysate, 3D7 strain, counter-screen for P. falciparum growth inhibition project (AID 2304);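 further: 0% = vehicle and 100% = reference inhibitor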
Settings: P. falciparum 3D7 crude extract, LDH APAD/NBT absorbance; at 2 µM; active compounds read high
MEASUREMENT LABEL: inhibition (%)
Please state the figure in %; there is no need to write the unit.

Illustrative cases are given below, each with its answer.
COMPOUND: CN(C)CCOc1ccnc2ccc(NC(=O)Cc3ccc(-c4ccncc4)c4ccccc34)cc12
RESULT VALUE: -6

COMPOUND: NC(=O)c1ccc(NCC(=O)Nc2cccc(-c3cccc(-c4nc5ccc(C(F)(F)F)cc5[nH]4)c3)c2)cc1
RESULT VALUE: 1

COMPOUND: N#Cc1ccc(NC(=O)N2CCCN(CCCCCNC(=O)/C=C/c3ccc(Cl)c(Cl)c3)CC2)cc1
RESULT VALUE: 0

Record COc1ccccc1C1CCN(C2CCC(NC(=O)/C=C/c3ccc(C(F)(F)F)cc3F)CC2)CC1 (stereo not drawn) , field inhibition: 2

The recorded inhibition for entry COc1ccc(Nc2ncc3c(-c4cccc(NC(=O)Cc5ccncc5)c4)c[nH]c3n2)cc1OC equals 1

The recorded inhibition for COc1ccc(CNC(=O)c2cnc3c(O)cccc3c2Nc2cccc(NC(=O)c3ccc(Cl)c([N+](=O)[O-])c3)c2)cc1 is 1

Documented inhibition of Cc1cc(N2CC=CCC2)nc(/N=C(\N)Nc2ccc(Br)cc2)n1 : -3

inhibition reported for this compound Cc1cc2c(cc1Cl)N(C(=O)Nc1cc(F)cc(-c3cncnc3)c1)CC2 : -6

The measured inhibition associated with Cc1cccc2[nH]c(-c3cccc(-c4cccc(CNCc5cnn(-c6ccccc6)n5)c4)c3)nc12 reads 1

Kindly note the recorded inhibition for COc1ccc2nccc([C@@H](O)CN3CCC(NCCOc4ccc(F)cc4F)CC3)c2c1 , which is -5

// COc1ccccc1-c1cccc(CNC2CCN(CC3Cn4c(=O)ccc5ccc(F)c3c54)CC2)c1 (stereo not drawn) : inhibition value = 3

Lab book: inhibition of CCCN1CCN(CCCCNc2c3ccccc3nc3ccccc23)CC1 noted as -8

Kindly note the recorded inhibition for COc1ccc(-c2nc(NC(=O)CS(=O)(=O)c3ccc(C)cc3)sc2C)cc1 , which is 2

inhibition reading for C[C@H](NC(=O)C1CCCC1)C(=O)Nc1ccc(-c2ccc(-c3nc4ccc(C(F)(F)F)cc4[nH]3)cc2)cc1 : -4

Value of inhibition reported for the compound COc1ccc2nccc([C@@H](O)CN3CCC(NCCOc4cc(C(F)(F)F)ccc4F)CC3)c2c1 is 2

inhibition recorded for this compound, Nc1ccc(-c2ccc(NC(=O)Nc3cc(C(F)(F)F)ccc3F)cc2)cn1 , is -9

inhibition for C[C@@H]1CN(c2cnn(Cc3cccc(NC(=O)Nc4ccc(F)cc4[N+](=O)[O-])c3)c(=O)c2Cl)C[C@H](C)N1 is 6

Value of inhibition reported for the compound NC1CCCN(Cc2ccc(-c3ccc(-c4nc5ccccc5[nH]4)s3)cc2)C1 (stereo not drawn) is -2

Noted for CN(CCc1ccccc1)c1ncc(-c2cccc(CNCCC3CCCN3C)c2)cn1 (stereo not drawn) : its inhibition reads -1

Per the records, this compound ( CCCCN(CCCC)C(=N)c1cccc2c1CCCC2 ) has inhibition equal to -2

Data point: CC(C)CNCc1cccc(-c2cccc(CNc3ccc4ncccc4c3)c2)c1 ; inhibition = 6

Looking up O=C(NCCNc1ccnc(NCc2ccc(F)cc2)n1)c1cc2ccccc2s1 , I see its inhibition listed as -5

Values from PubChem BioAssay
